# Format: in vivo, human
# measurement conditions: human, plasma, oral, 100 mg
readout label: Tmax (h)
Enter your answer as a number in h; do not include the unit.

Sample O=C(Nc1nc2cccc(-c3ccc(CN4CCS(=O)(=O)CC4)cc3)n2n1)C1CC1 ; Tmax observed: 1

###

# Assay type: in vivo, human
# measurement conditions: human, plasma, oral, 200 mg
readout label: half-life
Please answer using the number first and the unit second.

Value of measured half-life for the entry O=C(Nc1nc2cccc(-c3ccc(CN4CCS(=O)(=O)CC4)cc3)n2n1)C1CC1 [Filgotinib] : 8.4 h

###

# Format: in vivo, human
# measurement conditions: human, plasma, oral
readout label: half-life (h)
Record the value in h, omitting the unit from your answer.

Lookup result for O=C(Nc1nc2cccc(-c3ccc(CN4CCS(=O)(=O)CC4)cc3)n2n1)C1CC1 [Filgotinib] ; measured half-life: 6.26
